# ASSAY_SUMMARY: Metal chelating activity assessed as Fe2+-compound complex formation at 40 uM after 30 mins by UV-Visible spectrophotometric method
The source made the active and inactive calls. No cut-off for these calls is given here.
MEASURED_METRIC: Activity

| STRUCTURE_SMILES | Activity |
| --- | --- |
| O=C(/C=C/c1cc(O)c(O)c([N+](=O)[O-])c1)OCc1ccccc1 | inactive |
| N#C/C(=C\c1cc(O)c(O)c([N+](=O)[O-])c1)C(=O)NCc1ccccc1 | inactive |
| N#C/C(=C\c1cc(O)c(O)c([N+](=O)[O-])c1)C(=O)NCCc1ccccc1 | inactive |
| O=C(/C=C/c1cc(O)c(O)c([N+](=O)[O-])c1)OCCc1ccccc1 | inactive |
| N#C/C(=C\c1cc(O)c(O)c([N+](=O)[O-])c1)C(=O)OCc1ccccc1 | inactive |

Query: Annotate the compound N#C/C(=C\c1cc(O)c(O)c([N+](=O)[O-])c1)C(=O)OCCc1ccccc1 with its measured Activity.
Reply: inactive

* * *

# ASSAY_SUMMARY: Inhibition of synthetic AcPHF6 peptide aggregation in pH 7.4 phosphate buffer assessed as reduction in fluorescence intensity at 50 uM and measured every minute over 2 hrs with 5 secs shaking prior to each reading by ThT fluorescence assay
Calls of active or inactive are those of the source. No cut-off for these calls is given here.
MEASURED_METRIC: inhibition

Solved cases below.
| STRUCTURE_SMILES | MEASURED_METRIC | ASSAY_VALUE |
| --- | --- | --- |
| O=C(O)/C=C/c1ccc(O)c(O)c1 | inhibition | inactive |
| N#C/C(=C\c1cc(O)c(O)c([N+](=O)[O-])c1)C(=O)NCc1ccccc1 | inhibition | 90.5% |
| O=C(/C=C/c1ccc(O)c(O)c1)OCc1ccccc1 | inhibition | 13% |
| O=C(/C=C/c1ccc(O)c(O)c1)NCCc1ccccc1 | inhibition | inactive |

Respectfully, I request inhibition for each entry included below.
1. N#C/C(=C\c1cc(O)c(O)c([N+](=O)[O-])c1)C(=O)NCCc1ccccc1
2. O=C(O)/C=C/c1cc(O)c(O)c(O)c1
3. CCOC(=O)C(=Cc1ccc(O)cc1)C(=O)OCC

Reply:
1. 89.2%
2. inactive
3. inactive

Count: 8. Required value per item: inhibition.
1. O=C(O)/C=C/c1cc(O)c(O)c([N+](=O)[O-])c1
2. N#C/C(=C\c1cc(O)c(O)c([N+](=O)[O-])c1)C(=O)OCc1ccccc1
3. O=S(=O)(O)c1cc(S(=O)(=O)O)c2c(/N=N/c3ccccc3)c(O)ccc2c1
4. O=C(O)/C=C/c1ccc(O)cc1
5. CCOC(=O)C(=Cc1cc(O)c(O)c(O)c1)C(=O)OCC
6. CCOC(=O)/C=C/c1ccc(O)c(O)c1
7. O=C(O)c1ccc(O)c(O)c1
8. O=C(/C=C/c1cc(O)c(O)c([N+](=O)[O-])c1)OCc1ccccc1

Reply:
1. 45%
2. 71.2%
3. 54%
4. inactive
5. inactive
6. inactive
7. inactive
8. 44.5%

Required: inhibition, one value per compound below.
1. Cc1ccc(C(=O)c2cc(O)c(O)c([N+](=O)[O-])c2)cc1
2. O=C(O)/C=C/c1cc(O)c(O)c(Br)c1

Reply:
1. 64.6%
2. 18%

Sourced from ChEMBL document CHEMBL4339186
